Target: Vitamin D3 receptor (Mus musculus)
Sequence (whole entry): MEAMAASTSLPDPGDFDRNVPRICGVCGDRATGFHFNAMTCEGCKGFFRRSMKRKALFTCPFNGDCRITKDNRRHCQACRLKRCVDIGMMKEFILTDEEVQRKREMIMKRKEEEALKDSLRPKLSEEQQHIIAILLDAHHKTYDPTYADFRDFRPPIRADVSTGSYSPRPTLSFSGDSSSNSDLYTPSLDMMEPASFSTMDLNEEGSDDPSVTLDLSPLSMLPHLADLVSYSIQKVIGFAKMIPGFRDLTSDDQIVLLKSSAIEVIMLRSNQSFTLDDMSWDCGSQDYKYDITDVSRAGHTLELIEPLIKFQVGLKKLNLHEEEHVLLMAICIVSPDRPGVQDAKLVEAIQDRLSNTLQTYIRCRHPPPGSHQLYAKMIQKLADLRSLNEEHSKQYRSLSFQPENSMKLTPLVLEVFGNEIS
Experiment: Activation of VDR in mouse C3H10T1/2 cells assessed as upregulation of Cyp24A1 mRNA expression at 5 uM after 24 hrs by RT-PCR analysis relative to DMSO-treated control
Type: cell-based
Details: C3H 10T1/2
experimental_readout: fold change (FC)

substance_smiles	result
CC(C)CCC[C@@H](C)[C@H]1CC[C@H]2[C@@H](OC(=O)c3cccc(OCc4ccccc4)c3)CCC[C@]12C	1
CC(C)CCC[C@@H](C)[C@H]1CC[C@H]2[C@@H](OC(=O)c3cccc(Cl)c3)CCC[C@]12C	1.2
COc1cccc(C(=O)O[C@H]2CCC[C@]3(C)[C@@H]([C@H](C)CCCC(C)C)CC[C@@H]23)c1	1.3
CC(C)CCC[C@@H](C)[C@H]1CC[C@H]2[C@@H](OC(=O)c3cccc(O)c3)CCC[C@]12C	22.2

====

Target: Vitamin D3 receptor (Mus musculus) (UniProt P48281)
Test: Activation of VDR in mouse C3H10T1/2 cells assessed as upregulation of Cyp24A1 mRNA expression at 5 uM after 24 hrs by RT-PCR analysis relative to DMSO-treated control
Format: cell-based
Conditions: C3H 10T1/2
Parameter fold change (FC): see the listing below.

substance_smiles	fold change (FC)
CC(C)CCC[C@@H](C)[C@H]1CC[C@H]2[C@@H](O)CCC[C@]12C	3.6
CC(C)CCC[C@@H](C)[C@H]1CC[C@H]2[C@@H](OC(=O)c3ccccc3)CCC[C@]12C	1.2
CC(=O)c1cccc(C(=O)O[C@H]2CCC[C@]3(C)[C@@H]([C@H](C)CCCC(C)C)CC[C@@H]23)c1	1.6
CNc1cccc(C(=O)O[C@H]2CCC[C@]3(C)[C@@H]([C@H](C)CCCC(C)C)CC[C@@H]23)c1	1.6
CC(C)CCC[C@@H](C)[C@H]1CC[C@H]2[C@@H](OC(=O)c3cccc(N)c3)CCC[C@]12C	24.3
CC(C)CCC[C@@H](C)[C@H]1CC[C@H]2[C@@H](OC(=O)c3cccc(C(=O)O)c3)CCC[C@]12C	6.7
O=C(O)c1cccc(O)c1	1.6
C=C1CC[C@H](O)C/C1=C/C=C1\CCC[C@]2(C)[C@@H]([C@H](C)CCCC(C)C)CC[C@@H]12	8340

====

Reported Gli1 mRNA level (% of OHC control) is given for each of the following compounds.
Assay: Inhibition of Hedgehog signaling in mouse C3H10T1/2 cells assessed as downregulation of Gli1 mRNA expression at 5 uM after 24 hrs by RT-PCR analysis relative to 20(S)-hydroxycholesterol and 22(S)-hydroxycholesterol
Format: cell-based
Conditions: C3H 10T1/2
experimental_readout: Gli1 mRNA level (% of OHC control) (%)

compound	result
CC(C)CCC[C@@H](C)[C@H]1CC[C@H]2[C@@H](OC(=O)c3cccc(OCc4ccccc4)c3)CCC[C@]12C	116
CC(C)CCC[C@@H](C)[C@H]1CC[C@H]2[C@@H](OC(=O)c3cccc(O)c3)CCC[C@]12C	1.9
CC(C)CCC[C@@H](C)[C@H]1CC[C@H]2[C@@H](O)CCC[C@]12C	46.4
CC(C)CCC[C@@H](C)[C@H]1CC[C@H]2[C@@H](OC(=O)c3cccc(Cl)c3)CCC[C@]12C	107
COc1cccc(C(=O)O[C@H]2CCC[C@]3(C)[C@@H]([C@H](C)CCCC(C)C)CC[C@@H]23)c1	104
O=C(O)c1cccc(O)c1	92.6
CC(=O)c1cccc(C(=O)O[C@H]2CCC[C@]3(C)[C@@H]([C@H](C)CCCC(C)C)CC[C@@H]23)c1	77.5
CC(C)CCC[C@@H](C)[C@H]1CC[C@H]2[C@@H](OC(=O)c3ccccc3)CCC[C@]12C	105
C=C1CC[C@H](O)C/C1=C/C=C1\CCC[C@]2(C)[C@@H]([C@H](C)CCCC(C)C)CC[C@@H]12 [CHOLECALCIFEROL]	35.7
CC(C)CCC[C@@H](C)[C@H]1CC[C@H]2[C@@H](OC(=O)c3cccc(C(=O)O)c3)CCC[C@]12C	40
CNc1cccc(C(=O)O[C@H]2CCC[C@]3(C)[C@@H]([C@H](C)CCCC(C)C)CC[C@@H]23)c1	97.8
CC(C)CCC[C@@H](C)[C@H]1CC[C@H]2[C@@H](OC(=O)c3cccc(N)c3)CCC[C@]12C	2.4
